Data provenance is ChEMBL document CHEMBL4507261.

Target: voltage-gated L-type Ca2+ channel (diltiazem site, benzothiazepines) (Rattus norvegicus, UniProt P22002+P27732+Q02485)
Assay: Ca2+ channel (L, diltiazem site) (benzothiazepines) Eurofins-Cerep binding assay
Design: incubation time 120 min, incubation temperature RT, ligand concentration 15 nM
Details: rat cerebral cortex (source of protein), probe [3H]diltiazem (15 nM), compound concentration 10 uM, read-out: % Inhibition of Control Specific Binding (Mean n=2)
PROPERTY: inhibition at 120 min, 10 µM (%)
Please give a number only; it is taken to be in %.

In: Looking for the measured inhibition at 120 min, 10 µM of `CCCOc1ccc([C@@H]2[C@@H](C(=O)O)[C@H](c3ccc4c(c3)OCO4)CN2CC(=O)Nc2c(CC)cccc2CC)cc1` , can you help?
Out: 15.4

In: Looking for the measured inhibition at 120 min, 10 µM of `CCCOc1ccc([C@H]2[C@H](C(=O)O)[C@@H](c3ccc4c(c3)OCO4)CN2CC(=O)Nc2c(CC)cccc2CC)cc1` , can you help?
Out: 4.2

###

Biological target: voltage-gated Na+ channel (site 2) (Rattus norvegicus, UniProt F1LQQ7+O08562+O88420+O88457+P04774+P04775+P08104+P15389+P15390+Q62968)
Experiment: Na+ channel (site 2) Eurofins-Cerep binding assay
Set-up: incubation time 60 min, incubation temperature 37°C, ligand concentration 10 nM
Settings: rat cerebral cortex (source of protein), probe [3H]batrachotoxin (10 nM), compound concentration 10 uM, read-out: % Inhibition of Control Specific Binding (Mean n=2)
PROPERTY: inhibition at 60 min, 10 µM (%)
Please give a number only; it is taken to be in %.

In: Looking for the measured inhibition at 60 min, 10 µM of `CCCOc1ccc([C@H]2[C@H](C(=O)O)[C@@H](c3ccc4c(c3)OCO4)CN2CC(=O)Nc2c(CC)cccc2CC)cc1` , can you help?
Out: 29.1

In: Looking for the measured inhibition at 60 min, 10 µM of `CCCOc1ccc([C@@H]2[C@@H](C(=O)O)[C@H](c3ccc4c(c3)OCO4)CN2CC(=O)Nc2c(CC)cccc2CC)cc1` , can you help?
Out: 24.4

###

Target: UniProt:P21396
Sequence (P21396 whole entry): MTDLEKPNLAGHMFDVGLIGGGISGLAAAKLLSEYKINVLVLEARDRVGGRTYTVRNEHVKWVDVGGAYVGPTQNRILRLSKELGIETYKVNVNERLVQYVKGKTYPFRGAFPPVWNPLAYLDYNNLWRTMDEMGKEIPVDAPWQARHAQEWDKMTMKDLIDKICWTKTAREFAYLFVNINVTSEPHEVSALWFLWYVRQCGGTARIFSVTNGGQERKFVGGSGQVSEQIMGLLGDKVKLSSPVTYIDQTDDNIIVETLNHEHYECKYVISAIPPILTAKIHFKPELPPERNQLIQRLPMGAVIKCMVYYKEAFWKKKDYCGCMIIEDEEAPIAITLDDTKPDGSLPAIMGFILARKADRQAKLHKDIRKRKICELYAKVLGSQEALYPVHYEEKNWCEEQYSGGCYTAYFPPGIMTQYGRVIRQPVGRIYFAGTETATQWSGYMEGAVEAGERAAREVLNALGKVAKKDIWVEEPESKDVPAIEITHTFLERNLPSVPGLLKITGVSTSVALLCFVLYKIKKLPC
Test: MAO-A Eurofins-Cerep binding assay
Design: incubation time 60 min, incubation temperature 37°C, ligand concentration 10 nM
Conditions: rat cerebral cortex (source of protein), probe [3H]Ro 41-1049 (10 nM), compound concentration 10 uM, read-out: % Inhibition of Control Specific Binding (Mean n=2)
Consider the following compounds; for each one, report its inhibition at 60 min, 10 µM.
Returns: string containing the numeric result and its unit.

In: Looking for the measured inhibition at 60 min, 10 µM of `CCCOc1ccc([C@H]2[C@H](C(=O)O)[C@@H](c3ccc4c(c3)OCO4)CN2CC(=O)Nc2c(CC)cccc2CC)cc1` , can you help?
Out: 7.9%

In: Looking for the measured inhibition at 60 min, 10 µM of `CCCOc1ccc([C@@H]2[C@@H](C(=O)O)[C@H](c3ccc4c(c3)OCO4)CN2CC(=O)Nc2c(CC)cccc2CC)cc1` , can you help?
Out: 9.9%

###

Consider the following compounds; for each one, report its inhibition at 90 min, 10 µM.
Target: voltage-gated L-type Ca2+ channel (dihydropyridine site) (Rattus norvegicus, UniProt P22002+P27732+Q02485)
Assay: Ca2+ channel (L, dihydropyridine site) Eurofins-Cerep binding assay
Parameters: incubation time 90 min, incubation temperature RT, ligand concentration 0.1 nM
Details: rat cerebral cortex (source of protein), probe [3H]nitrendipine (0.1 nM), compound concentration 10 uM, read-out: % Inhibition of Control Specific Binding (Mean n=2)
Please give a number only; it is taken to be in %.

In: Looking for the measured inhibition at 90 min, 10 µM of `CCCOc1ccc([C@H]2[C@H](C(=O)O)[C@@H](c3ccc4c(c3)OCO4)CN2CC(=O)Nc2c(CC)cccc2CC)cc1` , can you help?
Out: 30.3

In: Looking for the measured inhibition at 90 min, 10 µM of `CCCOc1ccc([C@@H]2[C@@H](C(=O)O)[C@H](c3ccc4c(c3)OCO4)CN2CC(=O)Nc2c(CC)cccc2CC)cc1` , can you help?
Out: 27.2
